In this section, each of the compounds is paired with its reported viability, T/C.
Tested on: HSSY-II complex spheroid growth, percent test/control
Test Details: Anticancer human tumor HSSY-II cell line growth inhibition [Asc];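 also: spheroids exposed to drug for 7 days before reading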
Experimental Conditions: second compound 1 µM; first compound 0.316 µM; stronger effect = lower value

Compound	viability, T/C (%)
C#Cc1c(F)ccc2cc(O)cc(-c3ncc4c(N5CC6CCC(C5)N6)nc(OCC56CCCN5CC(F)C6)nc4c3F)c12 (stereo not drawn) + Cc1c(S(C)(=O)=O)c(-c2cc(F)cc(N3CCN(c4ccc(NS(=O)(=O)c5ccc(NC(CCN6CCC(C(=O)OCCCP(=O)(O)O)CC6)CSc6ccccc6)c(S(=O)(=O)C(F)(F)F)c5)cc4)CC3)c2)c(-c2ccc(Cl)cc2)n1C(C)C	109
O=C(c1ccc(F)c(F)c1Nc1ccc(I)cc1F)N1CC(O)([C@@H]2CCCCN2)C1 + CNC(C)C(=O)NC1CN(S(=O)(=O)c2cccc(S(=O)(=O)N3CCC4CCC(C(=O)NC(c5ccccc5)c5ccccc5)N4C(=O)C(NC(=O)C(C)NC)C3)c2)CCC2CCC(C(=O)NC(c3ccccc3)c3ccccc3)N2C1=O	70.7
C=C(F)C(=O)N1CCN(c2nc(OCC3CCCN3C)nc3c2CCN(c2cccc4cccc(Cl)c24)C3)CC1CC#N (stereo not drawn) + CNC(C)C(=O)NC1CN(S(=O)(=O)c2cccc(S(=O)(=O)N3CCC4CCC(C(=O)NC(c5ccccc5)c5ccccc5)N4C(=O)C(NC(=O)C(C)NC)C3)c2)CCC2CCC(C(=O)NC(c3ccccc3)c3ccccc3)N2C1=O	65.1
